MEASURED_ON: Cyclin-G-associated kinase (Homo sapiens)
Sequence (O14976 whole entry): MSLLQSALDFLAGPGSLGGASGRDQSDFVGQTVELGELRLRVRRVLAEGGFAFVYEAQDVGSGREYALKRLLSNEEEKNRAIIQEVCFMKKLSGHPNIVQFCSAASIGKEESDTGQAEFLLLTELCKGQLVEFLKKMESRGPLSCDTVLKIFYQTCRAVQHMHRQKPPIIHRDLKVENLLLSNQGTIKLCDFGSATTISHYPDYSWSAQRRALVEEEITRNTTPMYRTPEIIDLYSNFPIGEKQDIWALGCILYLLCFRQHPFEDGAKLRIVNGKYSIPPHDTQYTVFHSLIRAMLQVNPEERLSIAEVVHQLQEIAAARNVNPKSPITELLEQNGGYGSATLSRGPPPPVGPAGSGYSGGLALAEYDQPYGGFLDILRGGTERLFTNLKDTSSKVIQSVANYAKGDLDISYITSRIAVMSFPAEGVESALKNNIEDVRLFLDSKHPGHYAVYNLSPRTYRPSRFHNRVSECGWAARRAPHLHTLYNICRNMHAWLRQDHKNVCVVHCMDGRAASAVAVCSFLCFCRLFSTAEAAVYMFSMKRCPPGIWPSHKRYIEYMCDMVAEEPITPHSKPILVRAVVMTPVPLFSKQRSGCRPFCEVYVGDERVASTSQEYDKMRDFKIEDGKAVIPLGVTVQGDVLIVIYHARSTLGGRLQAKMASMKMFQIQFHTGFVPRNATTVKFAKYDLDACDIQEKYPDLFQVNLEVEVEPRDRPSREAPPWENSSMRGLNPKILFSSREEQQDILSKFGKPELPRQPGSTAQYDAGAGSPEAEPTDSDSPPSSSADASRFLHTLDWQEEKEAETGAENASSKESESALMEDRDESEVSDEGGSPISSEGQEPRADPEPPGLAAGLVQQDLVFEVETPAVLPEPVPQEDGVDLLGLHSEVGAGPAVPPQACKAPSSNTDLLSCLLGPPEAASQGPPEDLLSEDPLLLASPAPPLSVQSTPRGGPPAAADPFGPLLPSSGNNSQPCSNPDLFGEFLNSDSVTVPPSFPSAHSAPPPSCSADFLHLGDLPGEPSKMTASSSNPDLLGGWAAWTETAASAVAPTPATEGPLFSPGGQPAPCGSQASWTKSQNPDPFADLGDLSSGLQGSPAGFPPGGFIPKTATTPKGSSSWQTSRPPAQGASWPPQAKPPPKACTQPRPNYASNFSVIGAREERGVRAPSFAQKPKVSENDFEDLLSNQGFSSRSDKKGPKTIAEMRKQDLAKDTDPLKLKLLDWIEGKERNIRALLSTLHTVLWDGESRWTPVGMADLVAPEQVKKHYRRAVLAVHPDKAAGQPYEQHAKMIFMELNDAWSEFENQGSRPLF
The source made the active and inactive calls.
The reply should name one outcome from active, inactive

Take a look at these entries with their results.
Hi team, can someone confirm the assay call for O=C1NC(=O)[C@@H](c2cn3c4c(cccc24)CCC3)[C@@H]1c1c[nH]c2ccccc12 [TIVANTINIB] ?
inactive

Now the compound CO[C@H]1C[C@@H]2CC[C@@H](C)[C@@](O)(O2)C(=O)C(=O)N2CCCC[C@H]2C(=O)O[C@H]([C@H](C)C[C@@H]2CC[C@@H](O)[C@H](OC)C2)CC(=O)[C@H](C)/C=C(\C)[C@@H](O)[C@@H](OC)C(=O)[C@H](C)C[C@H](C)/C=C/C=C/C=C/1C [SIROLIMUS]
inactive

Same again, this time with Cn1ncc(Cl)c1-c1cc(C(=O)N[C@H](CN)Cc2ccc(F)c(F)c2)oc1Cl [UPROSERTIB]
inactive

// next record COc1cc(Nc2ncc3c(n2)-c2ccc(Cl)cc2C(c2c(F)cccc2OC)=NC3)ccc1C(=O)O [ALISERTIB]
inactive

Continuing:
What was the test verdict on C=CC(=O)N1CCC[C@H](n2c(=O)n(-c3ccc(Oc4ccccc4)cc3)c3c(N)ncnc32)C1 ?
inactive
